- Tested on: EKVX NSCLC
- Protocol Notes: NCI tumour cell line growth inhibition, 48 h
Measure Name: TGI

1. CN1CCN(c2ccc(NC(=O)c3cncnc3Nc3ccc(OCc4cccc(F)c4)c(Cl)c3)cc2)CC1 :: > 50 µM

Here CC[C@]1(O)CC2CN(CCc3c([nH]c4ccccc34)[C@@](C(=O)OC)(c3cc4c(cc3OC)N(C=O)[C@H]3[C@@](O)(C(=O)OC)[C@H](OC(C)=O)[C@]5(CC)C=CCN6CC[C@]43[C@@H]65)C2)C1 (stereo partly drawn) was tested on EKVX NSCLC, and its TGI came to > 50 µM

Here CS(C)(=O)=Nn1c(=O)n2n(c1=O)C1c3ccccc3C2c2ccccc21 was tested on EKVX NSCLC, and its TGI came to > 100 µM

Here Cc1cc(C)c2c(=O)n(CC(O)CN3CCN(CCOCCO)CC3)sc2n1 (stereo not drawn) was tested on EKVX NSCLC, and its TGI came to 35.3 µM

Here Cc1nc(C)c(N2CCN(C(=O)O)CC2)c(=O)[nH]1 was tested on EKVX NSCLC, and its TGI came to > 100 µM

---

- Tested on: MOLT-4 leukemia
- Protocol Notes: NCI tumour cell line growth inhibition, 48 h
# key: entry, value: TGI

Field: example entries. Status: answers known.
1) COc1ccc(Cn2cc3c(c2)-c2oncc2CC3)cc1OC :: > 12.2 µM
2) Cc1ccc2nc(-c3ccc(NC(=O)c4ccc(N)cc4)c(S(=O)(=O)O)c3)sc2c1 :: > 100 µM
3) CN1CCN(c2ccc(NC(=O)c3cncnc3Nc3ccc(OCc4cccc(F)c4)c(Cl)c3)cc2)CC1 :: 2.28 µM
4) CCOCC(=O)N(C)c1cccc2c3c(n(C)c12)CCCCC3 :: > 100 µM
5) CC(=O)OCC1OC(n2c(N)c(C#N)c(C)c(C#N)c2=S)C(OC(C)=O)C(OC(C)=O)C1OC(C)=O (centres undefined) :: > 100 µM
6) N#Cc1ccccc1C#C/C=C\C#Cc1ccccc1N :: > 100 µM
7) CC(C)CCC[C@@H](C)C1CCC2[C@@H]3CCC4C[C@@H](NS(C)(=O)=O)CC[C@]4(C)C3CC[C@@]21C (some centres undefined) :: > 100 µM
8) COC1OC(CBr)C(OC(=O)c2ccccc2)C(OS(=O)(=O)c2ccc(C)cc2)C1Br (centres undefined) :: > 100 µM
9) CCOC(=O)CCC(NC(=O)c1ccc(N=Cc2nc3ccccc3nc2-c2ccccc2)cc1)C(=O)OCC (centres undefined) :: > 100 µM
10) O/C(=C\c1nc2ccccc2nc1/C=C(\O)c1ccc(F)cc1)c1ccc(F)cc1 :: > 100 µM

Lab note: CCCCCCCCCC(CCCC(O)CC(=O)O)OC1OC(COC2OC(C)C(OC(C)=O)C(O)C2O)C(O)C(O)C1OC1OC(CO)C(O)C(O)C1OC1OC(C)C(OC(=O)CC(C)C)C(O)C1O (centres undefined) gave TGI of > 35 µM

Lab note: CCOC(=O)c1nc2ccccc2nc1Oc1ccc(C#N)cc1 gave TGI of > 100 µM

---

# key: entry, value: GI50
- System: SF-539 CNS
- Protocol Notes: NCI tumour cell line growth inhibition, 48 h

1. Cc1ccc(-c2nc(N3CCNCC3)c3oc(-c4ccccc4)nc3n2)cc1 :: 1.78 µM

Lab note: C/C(=N/O)c1ccc2c(c1)/C(=N/O)c1ccccc1-2 gave GI50 of 21.6 µM

Lab note: COc1ccc(Cl)cc1Nc1nc(C(F)(F)F)ccc1C(=O)N/N=C/c1cccnc1 gave GI50 of 5.12 µM

Lab note: Clc1ccc2ncc(-c3cccc(NC4CNC4)n3)n2c1 gave GI50 of 2.92 µM

Lab note: N#Cc1ccccc1C#C/C=C\C#CC#C/C=C\C#Cc1ccccc1C#N gave GI50 of 22.6 µM

Lab note: CCOC(=O)/C(C#N)=C1\SS/C(=C(/C#N)C(=O)OCC)S1 gave GI50 of 22.2 µM

---

- System: HOP-18 NSCLC
- Protocol Notes: NCI tumour cell line growth inhibition, 48 h
Measure Name: TGI

1) CCCCCCCCCCSC(=O)NC :: > 100 µM
2) O=C(Cc1ccc([N+](=O)[O-])c([N+](=O)[O-])c1CC(=O)C(=O)Nc1cc(Cl)ccc1Cl)C(=O)Nc1cc(Cl)ccc1Cl :: > 100 µM
3) Cc1nc(N)c(-c2ccccc2)s1 :: > 100 µM
4) CCOc1ccc(OCC)c([P+](c2ccccc2)(c2ccccc2)c2ccccc2)c1 :: 6.22 µM
5) COc1ccccc1-n1c(N)c2c(C)c(-c3ccccc3)[nH]c2nc1=S :: > 100 µM
6) CCOC(=O)C(NO)C(Sc1ccccc1)c1ccc(OC)cc1 (stereo not given) :: > 100 µM
7) Clc1ccc(CCc2ccncn2)c(Cl)c1 :: > 100 µM
8) O=C(N/N=C(/c1nc2ccc([N+](=O)[O-])cc2[nH]c1=O)C(O)c1ccc([N+](=O)[O-])cc1)c1ccncc1 (stereo not given) :: > 100 µM

Lab note: CCOCC(=O)N(C)c1cccc2c3c(n(C)c12)CCCCC3 gave TGI of > 20.9 µM

Lab note: COc1cc(C2C(C(=O)Nc3ccc([N+](=O)[O-])cc3)=C(C)NC(C)=C2C(=O)Nc2ccc([N+](=O)[O-])cc2)ccc1O gave TGI of > 74.2 µM

---

- Tested on: HT29 colon
- Protocol Notes: NCI tumour cell line growth inhibition, 48 h
# key: entry, value: TGI

Field: example entries. Status: answers known.
1. Cc1n[n+]([O-])c(C)cc1[N+](=O)[O-] :: 27 µM
2. O=C(N/N=C(/c1nc2ccc([N+](=O)[O-])cc2[nH]c1=O)C(O)c1ccc([N+](=O)[O-])cc1)c1ccncc1 (centres undefined) :: > 100 µM
3. O=S(=O)(O)c1ccc2c(N=Nc3ccc(N=Nc4ccccc4)cc3)c(O)c(S(=O)(=O)O)cc2c1 :: > 100 µM
4. Clc1ccc(OCc2nnc3n2N=C(c2ccc(Br)cc2)CS3)cc1 :: > 100 µM
5. O=C(Nc1ccccc1C(F)(F)F)c1ccc(NC2=C(Cl)C(=O)N(Cc3ccccc3)C2=O)cc1 :: > 100 µM

Lab note: NC(=O)C(=CNC(=S)Nc1ccc(S(=O)(=O)Nc2ccccn2)cc1)C(N)=O gave TGI of > 100 µM

Lab note: CC(=O)Nc1ccc(C(=O)NN2C(=O)C(Cl)C2c2cccc([N+](=O)[O-])c2)cc1 (centres undefined) gave TGI of > 100 µM

Lab note: CCOC(=O)c1sc2c(c1O)c(=O)n(-c1ccccc1)c(=S)n2-c1ccccc1 gave TGI of > 100 µM

Lab note: C/C(=N\NC(=S)NC(CCC(=O)O)C(=O)O)c1cnccn1 (centres undefined) gave TGI of > 100 µM

---

- System: TK-10 renal
- Protocol Notes: NCI tumour cell line growth inhibition, 48 h
Measure Name: TGI

Field: example entries. Status: answers known.
1) CN(C)/C=N\c1nncc2[nH]cnc12 :: > 100 µM
2) ClCc1ccc(Cn2cnc3c(Cl)ncnc32)cc1 :: 23.6 µM
3) N=c1ccc2nc(N)nn(O)c-2c1 :: > 100 µM
4) Cc1c(-c2ccc(O)cc2)oc(=O)c2ccc(O)cc12 :: > 100 µM

Please examine the following record next.
Lab note: COc1cc(COC(=O)N2CC=CC2C(=O)O)c([N+](=O)[O-])cc1OC (stereo not drawn) gave TGI of > 100 µM

---

- Test system: SF-539 CNS
- Protocol Notes: NCI tumour cell line growth inhibition, 48 h
# key: entry, value: TGI

1. CC(=O)[CH-]C(=O)c1ccccc1.CC(=O)[CH-]C(=O)c1ccccc1.CC(C)CCC[C@H](C)C1CCC2[C@@H]3CC=C4C[C@@H]([O-])CC[C@]4(C)C3CC[C@@]21C.CC(C)CCC[C@H](C)C1CCC2[C@@H]3CC=C4C[C@@H]([O-])CC[C@]4(C)C3CC[C@@]21C.Cl.[Ti+4] (stereo partly specified) :: > 25 µM
2. O=C(Nc1ccccc1C(F)(F)F)c1ccc(NC2=C(Cl)C(=O)N(Cc3ccccc3)C2=O)cc1 :: 59.5 µM
3. CSc1nn(C)cc2nc(C)nc1-2 :: > 100 µM
4. C=C1C(=O)O[C@H]2[C@H]1CC/C(Cn1cc(-c3cccc(Cl)c3)nn1)=C\CC[C@@]1(C)O[C@@H]21 :: 0.791 µM
5. CN1N=C(c2ccccc2)C(C(c2ccccc2[N+](=O)[O-])C2C(=O)N(C)N=C2c2ccccc2)C1=O (stereo unspecified) :: > 100 µM
6. O=CNc1ccc(S(=O)(=O)c2ccc(NC=O)cc2)cc1 :: > 100 µM
7. Cc1ccc(-c2nc3cc(Cl)c(Cl)cc3nc2C#N)cc1 :: > 100 µM
8. CCN(CC)c1ccc2cc(C(=O)NCc3ccccc3)c(=N)oc2c1 :: > 100 µM

Lab note: O=C1c2ccccc2C(=O)c2c1ccc1c(=O)n(-c3ccccc3C(F)(F)F)nnc21 gave TGI of 8.49 µM

Lab note: COc1cc(OC)c2c(=O)c3c([N+](=O)[O-])cccc3n(C)c2c1 gave TGI of > 100 µM

Lab note: CCCCCC[C@@H](C)Nc1nc2ccccc2c2occc12 gave TGI of 22.5 µM

Lab note: COc1ccc(-n2c3c(c4cc(O)ccc42)Cc2ccccc2C3=O)cc1 gave TGI of > 100 µM

Lab note: COc1ccccc1-n1c(N)c2c(C)c(-c3ccccc3)[nH]c2nc1=S gave TGI of > 100 µM

Lab note: Cc1ccc(NC(=O)CSc2nnc(Cc3ccccc3)o2)cc1 gave TGI of > 100 µM

Lab note: CCN(CC)C(=S)SC1C(=O)NC(=O)NC1=O gave TGI of > 100 µM
